target: recombinant renin in human plasma (Homo sapiens); construct: purchased Proteos; assay: Inhibition of renin in human plasma; assay type: biochemical; conditions: human EDTA plasma, 1 nM recombinant renin added, 37° C., 1 hour; read-out: Human Renin IC50 (plasma)
REPORTED_METRIC: IC50 (nM)

{"MOLECULE": "Cn1ccc(C2CCNC[C@@H]2C(=O)N(Cc2cc(CCC#N)cc(Cl)c2Cl)C2CC2)cc1=O (stereo in doubt)", "READOUT_VALUE": 17}
{"MOLECULE": "COCCCc1ccc2c(c1)C(N(C(=O)[C@H]1CNCCC1c1ccn(C)c(=O)c1)C1CC1)CCC2 (single isomer, unassigned) [Example 100 Diastereomer B]", "READOUT_VALUE": 16.2}
{"MOLECULE": "Cc1cc(Cc2ccccc2)cc(CN(C(=O)[C@@H]2CNCC[C@H]2c2ccn(C)c(=O)c2)C2CC2)c1 (relative stereo)", "READOUT_VALUE": 21}

---

target: Human recombinant renin (Homo sapiens, UniProt P00797); construct: purchased Proteos; assay: Inhibition of human recombinant renin (buffer); format: biochemical; conditions: 100 pM renin, 50 mM MOPS pH 7.4, 37° C., 3 hours; read-out: Human Renin IC50 (buffer)
REPORTED_METRIC: IC50 (nM)

[A] Cn1ccc(C2CCNC[C@@H]2C(=O)N(Cc2cc(CCC#N)cc(Cl)c2Cl)C2CC2)cc1=O (stereo in doubt)
[B] COCCCc1cc(CN(C(=O)[C@H]2CNCC[C@@H]2c2ccn(C)c(=O)c2)C2CC2)cc(Br)c1C (relative stereo)
[C] COCCCn1cc(CN(C(=O)[C@@H]2CNCC[C@H]2c2ccn(C)c(=O)c2)C2CC2)c2c(F)cccc21 (relative stereo)
Order the entries above by descending IC50. In plain terms: list the labels in the order you were asked to.
A, B, C

---

Target: recombinant renin in human plasma (Homo sapiens, UniProt P00797)
Construct: purchased Proteos
Experiment: Inhibition of renin in human plasma
Type: biochemical
Settings: Human Renin IC50 (plasma), human EDTA plasma, 1 nM recombinant renin added, 37° C., 1 hour
Description: Human EDTA-collected plasma is rapidly thawed in warm water and centrifuged at 2900 g for 15 minutes at 4° C. The supernatant is collected and recombinant renin (Proteos) is added at a final concentration of 1 nM. […] The plate is incubated at 37° C. for 1 hour. […] Background fluorescence at t=0 is subtracted from the measurement at t=1 hour. Inhibitory activity of the compounds is expressed as IC50.
REPORTED_METRIC: pIC50
Keep in mind that pIC50 stands for -log10 of concentration in molar terms.

pIC50 for COCCNc1cc(CN(C(=O)[C@@H]2CNCC[C@H]2c2ccn(C)c(=O)c2)C2CC2)c2ccccc2c1 (relative stereo) ?
8.62

---

molecular target: recombinant renin in human plasma (Homo sapiens, UniProt P00797); construct: purchased Proteos; assay: Inhibition of renin in human plasma; assay type: biochemical; details: human EDTA plasma, 1 nM recombinant renin added, 37° C., 1 hour; read-out: Human Renin IC50 (plasma)
pIC50: −log10 of the molar value.
REPORTED_METRIC: pIC50

A selection of reference data follows.
{"COMPOUND": "COCCCc1cc(Cl)c(Cl)c(CN(C(=O)[C@@H]2CNCC[C@H]2c2ccn(C)c(=O)c2)C2CC2)c1 (relative stereo) [Example 5]", "pIC50": 8.89}
{"COMPOUND": "COCCCn1cc(CN(C(=O)[C@@H]2CNCC[C@H]2c2ccn(C)c(=O)c2)C2CC2)c2c(F)cccc21 (relative stereo) [Example 69]", "pIC50": 9.05}
{"COMPOUND": "COCCCc1cc(CN(C(=O)[C@@H]2CNCC[C@H]2c2ccn(C)c(=O)c2)C2CC2)cc(-c2ccccc2)c1 (relative stereo) [Example 33]", "pIC50": 7.09}
{"COMPOUND": "COCCCc1cc(CN(C(=O)[C@@H]2CNCC[C@H]2c2ccn(C)c(=O)c2)C2CC2)c2ccccc2n1 (relative stereo) [Example 25]", "pIC50": 8.52}
{"COMPOUND": "COCCCc1ccc2c(c1)C(N(C(=O)[C@H]1CNCCC1c1ccn(C)c(=O)c1)C1CC1)CCC2 (single isomer, unassigned) [Example 100 Diastereomer A]", "pIC50": 8.92}

[I] Cn1ccc([C@@H]2CCNC[C@H]2C(=O)N(Cc2cn(Cc3cccc(F)c3)c3cccc(F)c23)C2CC2)cc1=O (relative stereo) [Example 68]
[II] COCCCc1cc(CN(C(=O)[C@@H]2CNCC[C@H]2c2cc(=O)n(C)c(C)c2C)C2CC2)cc(OCCOC)c1 (relative stereo) [Example 13]
[III] Cn1ccc([C@@H]2CCNC[C@H]2C(=O)N(Cc2c[nH]c3cccc(F)c23)C2CC2)cc1=O (relative stereo) [Example 75]
Arrange the 3 entries by pIC50 so the values rise. # the answer lists labels in the order requested
II, III, I

[I] COCCCn1cc(CN(C(=O)[C@@H]2CNCC[C@H]2c2ccn(C)c(=O)c2)C2CC2)c(=O)n(CCCOC)c1=O (relative stereo) [Example 79]
[II] Cn1ccc([C@@H]2CCNC[C@H]2C(=O)N(Cc2cn(Cc3cccc(F)c3)c3cccc(Br)c23)C2CC2)cc1=O (relative stereo) [Example 73]
In terms of reported pIC50, does I or II have the smaller number? Please respond with the label that marks your chosen entry.
I
(I: 7.12, II: 9.30)

[A] Cc1c(Br)cc(CN(C(=O)[C@@H]2CNCC[C@H]2c2ccn(C)c(=O)c2)C2CC2)cc1CCCOC(F)F (relative stereo) [Example 103]
[B] CCn1ccc([C@@H]2CCNC[C@H]2C(=O)N(Cc2cc(CCCOC)cc(OCCOC)c2)C2CC2)cc1=O (relative stereo) [Example 12]
Returns the identifier with the smallest measured pIC50 among A and B . Give the label of your selection.
B
(B: 6.34, A: 8.85)

---

Target: Human recombinant renin (Homo sapiens)
Construct: purchased Proteos
Sequence (P00797 67-406): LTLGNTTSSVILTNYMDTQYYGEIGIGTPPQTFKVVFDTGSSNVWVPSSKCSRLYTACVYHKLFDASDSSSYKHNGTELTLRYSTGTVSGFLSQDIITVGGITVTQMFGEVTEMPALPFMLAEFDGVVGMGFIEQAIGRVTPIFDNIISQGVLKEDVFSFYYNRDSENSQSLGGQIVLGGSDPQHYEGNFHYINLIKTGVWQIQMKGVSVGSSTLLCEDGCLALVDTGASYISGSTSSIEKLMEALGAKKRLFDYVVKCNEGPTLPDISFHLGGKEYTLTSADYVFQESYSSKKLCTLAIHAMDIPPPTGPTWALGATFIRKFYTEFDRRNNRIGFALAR
Test: Inhibition of human recombinant renin (buffer)
Type: biochemical
Settings: 100 pM renin, 50 mM MOPS pH 7.4, 37° C., 3 hours; read-out: Human Renin IC50 (buffer)
REPORTED_METRIC: IC50 (nM)

Below, 3 compounds whose answers are already recorded.
{"COMPOUND": "Cn1ccc([C@@H]2CCNC[C@H]2C(=O)N(Cc2c[nH]c3cccc(F)c23)C2CC2)cc1=O (relative stereo)", "TARGET_OR_SYSTEM": "Human recombinant renin (Homo sapiens)", "READING_UNIT": "nM", "IC50": 12.7}
{"COMPOUND": "COCCCc1cc(Cl)c(Cl)c(CN(C(=O)[C@@H]2CNCC[C@H]2c2ccn(C)c(=O)c2)C2CC2)c1 (relative stereo)", "TARGET_OR_SYSTEM": "Human recombinant renin (Homo sapiens)", "READING_UNIT": "nM", "IC50": 0.3}
{"COMPOUND": "COCCCc1ccc2c(c1)C(N(C(=O)[C@H]1CNCCC1c1ccn(C)c(=O)c1)C1CC1)CCC2 (single isomer, unassigned) [Example 100 Diastereomer A]", "TARGET_OR_SYSTEM": "Human recombinant renin (Homo sapiens)", "READING_UNIT": "nM", "IC50": 0.3}

[A] Cc1cc(Cc2ccccc2)cc(CN(C(=O)[C@@H]2CNCC[C@H]2c2ccn(C)c(=O)c2)C2CC2)c1 (relative stereo)
[B] CCn1ccc([C@@H]2CCNC[C@H]2C(=O)N(Cc2cc(CCCOC)cc(OCCOC)c2)C2CC2)cc1=O (relative stereo)
Quick one: lower IC50, A or B ? Reply with the label of the item you choose.
A
(A: 7.5 nM, B: 200 nM)

Data credit: patent US8889714B2
